Hi there, I'd appreciate the recorded TGI for every entry that follows.
Tested on: SN12C renal
Experiment: NCI tumour cell line growth inhibition, 48 h

NC1(Cc2ccc(Cl)cc2)CCN(c2ncnc3[nH]ccc23)CC1 :: 28.8 µM
COc1ccc(-c2c(-c3ccccc3)c(C)nc3nc(SC)nc(SC)c23)cc1OC :: > 100 µM
CC1=Nc2c([nH]c(=S)[nH]c2=O)NC(c2c(Cl)cccc2Cl)C1 (stereo not drawn) :: 3.09 µM

State recorded TGI for all listed compounds.
1. NC(=O)c1sc(-n2cnc3cc(C(F)(F)F)ccc32)cc1OCc1ccccc1Br
2. O=C(SCc1cccc2ccccc12)c1ccc(Cl)cc1

> 25 µM
> 100 µM

Batch of 5 compounds: report TGI for each.
1. Nc1nc(N)c2nc3c(nc2n1)CCCCCCCCCC3
2. O=C1CC/C(=C/COc2cc(=O)oc3ccccc23)O1
3. COc1cc(C(C)O)c[n+](CCC2CNc3ccccc32)c1 (stereo not drawn)
4. CN(C)c1ccc(/C=N/S(=O)(=O)c2ccc(-n3c(-c4ccccc4)nc4c(Br)cc(Br)cc4c3=O)cc2)cc1
5. Cc1cc2nc3c(C#N)c4c(c(-c5ccc(Cl)cc5)n3c2cc1C)CCC4

> 100 µM
36 µM
> 100 µM
> 100 µM
75.4 µM

Data provenance is PubChem BioAssay (NCI).
